# tested.on: T1, IL-2 receptor of the human CD4 positive T cell clone 3F8 (expresses CD25 and CD122) (human, UniProt P01589 22-272; P14784 27-551)
# T1 sequence 1: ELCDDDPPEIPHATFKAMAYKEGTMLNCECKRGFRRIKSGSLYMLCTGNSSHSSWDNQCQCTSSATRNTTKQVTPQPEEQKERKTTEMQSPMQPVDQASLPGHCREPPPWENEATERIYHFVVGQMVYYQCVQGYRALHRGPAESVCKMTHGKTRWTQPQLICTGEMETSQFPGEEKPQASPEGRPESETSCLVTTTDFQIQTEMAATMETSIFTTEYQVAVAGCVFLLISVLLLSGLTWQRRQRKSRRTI
# T1 sequence 2: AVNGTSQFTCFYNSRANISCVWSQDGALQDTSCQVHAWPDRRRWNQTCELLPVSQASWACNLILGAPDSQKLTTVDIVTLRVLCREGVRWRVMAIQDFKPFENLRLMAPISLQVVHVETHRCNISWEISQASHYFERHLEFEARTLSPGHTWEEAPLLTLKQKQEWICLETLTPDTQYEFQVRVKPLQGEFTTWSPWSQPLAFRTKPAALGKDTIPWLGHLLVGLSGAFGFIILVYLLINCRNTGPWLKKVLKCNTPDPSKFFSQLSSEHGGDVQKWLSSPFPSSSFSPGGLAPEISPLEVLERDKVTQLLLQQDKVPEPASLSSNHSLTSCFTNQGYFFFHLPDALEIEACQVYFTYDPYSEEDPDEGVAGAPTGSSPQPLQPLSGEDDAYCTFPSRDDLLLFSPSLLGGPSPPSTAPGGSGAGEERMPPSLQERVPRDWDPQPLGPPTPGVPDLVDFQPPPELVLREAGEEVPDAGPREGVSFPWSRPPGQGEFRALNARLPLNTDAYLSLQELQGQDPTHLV
# protocol.notes: cell-based or functional assay
Response field label takes Condition met when Proliferation IC50 (pM), 3F8 cells is strictly below 20 pM and Condition not met in all other cases.

Is the reported Proliferation IC50 (pM), 3F8 cells for hIL2 mutein REV (L18R, Q22E, Q126V) (ligand) APTSSSTKKTQLQLEHLRLDLEMILNGINNYKNPKLTRMLTFKFYMPKKATELKHLQCLEEELKPLEEVLNLAQSKNFHLRPRDLISNINVIVLELKGSETTFMCEYADETATIVEFLNRWITFCVSIISTLT strictly below 20 pM? Condition not met

Same again, this time with hIL2 mutein REY (L18R, Q22E, Q126Y) (ligand) APTSSSTKKTQLQLEHLRLDLEMILNGINNYKNPKLTRMLTFKFYMPKKATELKHLQCLEEELKPLEEVLNLAQSKNFHLRPRDLISNINVIVLELKGSETTFMCEYADETATIVEFLNRWITFCYSIISTLT Condition met
